Experiment: Inhibitory concentration against alpha-galactosidase of coffee bean
Set-up: species or system Coffea arabica
Record form. Attribute: IC50. Fill in for each entry.
One number for each entry, in µM.

compound	IC50, µM
OC[C@@H]1NC[C@@H](O)[C@H](O)[C@@H]1O	13
OC[C@H]1NC[C@@H](O)[C@H](O)[C@H]1O	67
OC[C@H]1NC[C@H](O)[C@@H](O)[C@H]1O	0.003

Look up IC50 for the entries below, preserving their order.
1. OC[C@H]1NC[C@H](O)[C@H](O)[C@@H]1O
2. OC[C@H]1NC[C@H](O)[C@H](O)[C@H]1O
3. OC[C@H]1NC[C@H](O)[C@@H](O)[C@@H]1O [DUVOGLUSTAT]
4. OC[C@@H]1NC[C@@H](O)[C@@H](O)[C@H]1O

260
160
880
290

====

Molecular target: Lysosomal alpha-mannosidase (Homo sapiens) (UniProt O00754)
Experiment: Percent inhibition of human alpha-mannosidase at 1000 uM
Record form. Attribute: inhibition. Fill in for each entry.

Consider the worked cases shown below.
structure	inhibition
OC[C@H]1NC[C@@H](O)[C@@H](O)[C@@H]1O	< 50%
OC[C@H]1NC[C@H](O)[C@@H](O)[C@H]1O	< 50%

Look up inhibition for the entries below, preserving their order.
1. OC[C@H]1NC[C@H](O)[C@H](O)[C@H]1O
2. OC[C@@H]1NC[C@H](O)[C@H](O)[C@H]1O

1: < 50%; 2: < 50%

Look up inhibition for the entries below, preserving their order.
1. OC[C@@H]1NC[C@H](O)[C@@H](O)[C@@H]1O
2. OC[C@H]1NC[C@@H](O)[C@H](O)[C@H]1O
3. OC[C@H]1NC[C@H](O)[C@H](O)[C@@H]1O
4. OC[C@@H]1NC[C@@H](O)[C@@H](O)[C@@H]1O
5. OC[C@@H]1NC[C@@H](O)[C@H](O)[C@H]1O
6. OC[C@H]1NC[C@H](O)[C@@H](O)[C@@H]1O
7. OC[C@@H]1NC[C@@H](O)[C@H](O)[C@@H]1O

1: < 50%; 2: < 50%; 3: < 50%; 4: < 50%; 5: < 50%; 6: < 50%; 7: < 50%

====

Target: Beta-galactosidase (Rattus norvegicus) (UniProt D3ZUM4)
Sequence (whole entry): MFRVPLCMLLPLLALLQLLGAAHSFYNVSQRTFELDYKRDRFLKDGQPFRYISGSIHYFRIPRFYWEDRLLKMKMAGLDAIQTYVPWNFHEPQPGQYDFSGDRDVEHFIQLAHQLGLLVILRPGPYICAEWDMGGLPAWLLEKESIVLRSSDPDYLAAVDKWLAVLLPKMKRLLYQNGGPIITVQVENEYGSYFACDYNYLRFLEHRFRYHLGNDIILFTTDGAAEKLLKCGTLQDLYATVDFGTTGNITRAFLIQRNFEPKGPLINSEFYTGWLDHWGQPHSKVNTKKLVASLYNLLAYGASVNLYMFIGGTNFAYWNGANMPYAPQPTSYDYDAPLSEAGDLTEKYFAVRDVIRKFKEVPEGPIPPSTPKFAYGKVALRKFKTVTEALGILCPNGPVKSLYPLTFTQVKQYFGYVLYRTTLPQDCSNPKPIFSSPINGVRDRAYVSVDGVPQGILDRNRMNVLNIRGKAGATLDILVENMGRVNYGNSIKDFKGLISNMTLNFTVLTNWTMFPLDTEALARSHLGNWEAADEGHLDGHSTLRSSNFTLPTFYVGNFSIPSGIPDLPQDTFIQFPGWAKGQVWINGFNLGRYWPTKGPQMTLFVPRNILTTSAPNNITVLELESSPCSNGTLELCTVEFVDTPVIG
Test: Percent inhibition of beta-galactosidase of rat epididymis at 1000 uM
Record form. Attribute: inhibition. Fill in for each entry.

Consider the worked cases shown below.
structure	endpoint label	measurement
OC[C@@H]1NC[C@@H](O)[C@@H](O)[C@H]1O	inhibition	< 50%
OC[C@H]1NC[C@H](O)[C@H](O)[C@H]1O	inhibition	< 50%
OC[C@H]1NC[C@@H](O)[C@H](O)[C@@H]1O	inhibition	< 50%
OC[C@@H]1NC[C@H](O)[C@@H](O)[C@H]1O	inhibition	< 50%
OC[C@H]1NC[C@@H](O)[C@H](O)[C@H]1O	inhibition	< 50%

Look up inhibition for the entries below, preserving their order.
1. OC[C@@H]1NC[C@H](O)[C@@H](O)[C@@H]1O
2. OC[C@H]1NC[C@H](O)[C@H](O)[C@@H]1O
3. OC[C@H]1NC[C@@H](O)[C@@H](O)[C@@H]1O
4. OC[C@@H]1NC[C@H](O)[C@H](O)[C@H]1O
5. OC[C@@H]1NC[C@@H](O)[C@@H](O)[C@@H]1O

["< 50%", "< 50%", "< 50%", "< 50%", "< 50%"]
